All figures here come from patent US20230203095A1.

testSummary: in vivo
particulars: rat, in vivo, iv, 1 mg/kg, MRT0-t
Peptide text beside a SMILES is read from it. * marks the point of attachment. X1 = CC(=O)N[C@H]1C(*)O[C@H](CO)[C@@H](O)[C@@H]1O
measuredMetric: MRT last (min)
Reply numerically in min, unit not repeated.

Challenge: Return the recorded MRT last value; entry: CC(=O)N[C@H]1C(OC[C@H](NC(=O)[C@@H](NC(=O)[C@H](Cc2ccc(O)cc2)NC(=O)[C@@H](NC(=O)[C@H](CCC(N)=O)NC(=O)CN)[C@@H](C)OC2O[C@H](CO)[C@@H](O)[C@H](O)[C@H]2NC(C)=O)[C@@H](C)O)C(=O)NCC(=O)O)O[C@H](CO)[C@@H](O)[C@@H]1O (stereo partly shown) [SIPI-G9, GQT(Glc)YTS(Glc)G] (H-GQT(X1)YTS(X1)G-OH)
Response given: 5.49

###

testSummary: Plasma drug concentrations and pharmacokinetics after a single intravenous or subcutaneous injection of SIPI-G9 in SD rats
particulars: male, SD, rat, plasma, sc, 5 mg/kg, Plasma G-9 concentration, SIPI-G9 5 mg/kg single subcutaneous injection, SD rats, 40 min, individual rats
Peptide text beside a SMILES is read from it. * marks the point of attachment. X1 = CC(=O)N[C@H]1C(*)O[C@H](CO)[C@@H](O)[C@@H]1O
measuredMetric: level at 40 min (ng/mL)
Reply numerically in ng/mL, unit not repeated.

Challenge: Return the recorded level at 40 min value; entry: CC(=O)N[C@H]1C(OC[C@H](NC(=O)[C@@H](NC(=O)[C@H](Cc2ccc(O)cc2)NC(=O)[C@@H](NC(=O)[C@H](CCC(N)=O)NC(=O)CN)[C@@H](C)OC2O[C@H](CO)[C@@H](O)[C@H](O)[C@H]2NC(C)=O)[C@@H](C)O)C(=O)NCC(=O)O)O[C@H](CO)[C@@H](O)[C@@H]1O (stereo partly shown) [SIPI-G9, GQT(Glc)YTS(Glc)G] (H-GQT(X1)YTS(X1)G-OH)
Response given: 230

###

testSummary: Plasma drug concentrations and pharmacokinetics after a single intravenous or subcutaneous injection of SIPI-G9 in SD rats
particulars: male, SD, rat, plasma, sc, 5 mg/kg, Plasma G-9 concentration, Mean, SIPI-G9 5 mg/kg s.c., SD rats, 10 min, n=3
Peptide text beside a SMILES is read from it. * marks the point of attachment. X1 = CC(=O)N[C@H]1C(*)O[C@H](CO)[C@@H](O)[C@@H]1O
measuredMetric: level at 10 min (ng/mL)
Reply numerically in ng/mL, unit not repeated.

Challenge: Return the recorded level at 10 min value; entry: CC(=O)N[C@H]1C(OC[C@H](NC(=O)[C@@H](NC(=O)[C@H](Cc2ccc(O)cc2)NC(=O)[C@@H](NC(=O)[C@H](CCC(N)=O)NC(=O)CN)[C@@H](C)OC2O[C@H](CO)[C@@H](O)[C@H](O)[C@H]2NC(C)=O)[C@@H](C)O)C(=O)NCC(=O)O)O[C@H](CO)[C@@H](O)[C@@H]1O (stereo partly shown) [SIPI-G9, GQT(Glc)YTS(Glc)G] (H-GQT(X1)YTS(X1)G-OH)
Response given: 796

###

testSummary: Plasma drug concentrations and pharmacokinetics after a single intravenous or subcutaneous injection of SIPI-G9 in SD rats
particulars: male, SD, rat, plasma, iv, 1 mg/kg, Plasma G-9 concentration, Mean, SIPI-G9 1 mg/kg i.v., SD rats, 20 min, n=3
Procedure: Routes: single back subcutaneous injection and single tail vein injection; Orbital blood was collected at different time points before and after administration. […] High concentration samples were diluted with blank plasma. […] Pharmacokinetic parameters were calculated using the non-compartmental model of DAS 2.0 software. Both Cmax and Tmax are measured values; AUC, T½, CL and Vz are calculated by DAS 2.0.
Peptide text beside a SMILES is read from it. * marks the point of attachment. X1 = CC(=O)N[C@H]1C(*)O[C@H](CO)[C@@H](O)[C@@H]1O
measuredMetric: level at 20 min (ng/mL)
Reply numerically in ng/mL, unit not repeated.

Challenge: Return the recorded level at 20 min value; entry: CC(=O)N[C@H]1C(OC[C@H](NC(=O)[C@@H](NC(=O)[C@H](Cc2ccc(O)cc2)NC(=O)[C@@H](NC(=O)[C@H](CCC(N)=O)NC(=O)CN)[C@@H](C)OC2O[C@H](CO)[C@@H](O)[C@H](O)[C@H]2NC(C)=O)[C@@H](C)O)C(=O)NCC(=O)O)O[C@H](CO)[C@@H](O)[C@@H]1O (stereo partly shown) [SIPI-G9, GQT(Glc)YTS(Glc)G] (H-GQT(X1)YTS(X1)G-OH)
Response given: 48.4
